# ASSAY_INFO: qHTS assay to identify small molecule agonists of the androgen receptor (AR) signaling pathway in the presence of an antagonist - cell viability counter screen (AID 1259379);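 note: MDA-kb2 human breast cancer cells carrying an MMTV luciferase reporter; nearly all actives have a fitted effect of over 25% in size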
# CONDITION_INFO: MDA-kb2 viability, CellTiter-Fluor, 16 h; series mostly up to 92.4 µM
Records with an inconclusive call do not appear. Active and inactive are the calls of the source. Calls come from the whole dose curve; as a rule, active = well fitted cell-killing curve with a large enough effect in the repeat runs; inconclusive = weak or mixed curves, or effect the other way; inactive = flat fitted curve, though single readings scatter.
MEASUREMENT_NAME: Potency

Answered examples (6):
{"MOLECULE": "Cc1ccnc2c1NC(=O)c1cccnc1N2C1CC1", "Potency": "inactive"}
{"MOLECULE": "OCCN1CCNCC1", "Potency": "inactive"}
{"MOLECULE": "O=C(O)c1cc(Cl)cc(Cl)c1", "Potency": "inactive"}
{"MOLECULE": "Nc1nc2ccccc2[nH]1", "Potency": "inactive"}
{"MOLECULE": "O=S(=O)(O)c1ccc2nc(-c3ccccc3)[nH]c2c1", "Potency": "inactive"}
{"MOLECULE": "O=C(Oc1ccccc1)c1ccccc1O", "Potency": "inactive"}

Inquiry: Dear colleague, I am looking for the recorded Potency of the following molecule: "c1cnc2cc3c(cc2n1)C1CNCC3C1"
Reply text: inactive

Inquiry: Also check CCn1cc(C(=O)O)c(=O)c2cc(F)c(N3CCNC(C)C3)c(F)c21 (stereo not drawn)
Reply text: inactive
